I'd be grateful if you could share measured Anti-CD28 Fab (SEQ ID NOs: 202, 203) signal for these entries.
# TEST_TARGET: T1, Anti-CD28 Fab (SEQ ID NOs: 202, 203)
# T1 construct: biotinylated and captured on neutravidin coated plates in the phage ELISA
# T1 sequence (VH, as listed by the source, chain 1 of 2): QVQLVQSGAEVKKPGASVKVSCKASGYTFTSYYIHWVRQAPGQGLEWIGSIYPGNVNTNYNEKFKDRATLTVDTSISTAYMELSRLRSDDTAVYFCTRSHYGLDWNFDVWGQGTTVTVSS
# T1 sequence (VL, as listed by the source, chain 2 of 2): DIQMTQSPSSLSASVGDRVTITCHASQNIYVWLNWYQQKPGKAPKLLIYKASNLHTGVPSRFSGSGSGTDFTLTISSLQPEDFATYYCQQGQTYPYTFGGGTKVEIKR
# ASSAY_DETAILS: phage binding ELISA, Fab on plate;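 note: clonal phage supernatant ELISA, wells preincubated with CD28 antigen or blocking buffer only, then bound phage detected using HRP-linked anti-M13 antibody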
Just the number, please, no unit after it.

Sample TCAAGASWEWPLCF [Phage-1094] — what was its Anti-CD28 Fab (SEQ ID NOs: 202, 203) signal?
1.52

Sample TCSAGAHFAWPMCF [Phage-1045] — what was its Anti-CD28 Fab (SEQ ID NOs: 202, 203) signal?
1.69

Sample TCAAGAAWEWPICF [Phage-1091] — what was its Anti-CD28 Fab (SEQ ID NOs: 202, 203) signal?
1.54

Sample TCSAGATYVWPDCF [Phage-1095] — what was its Anti-CD28 Fab (SEQ ID NOs: 202, 203) signal?
1.52

Sample TCSAGATWPWPICL [Phage-997] — what was its Anti-CD28 Fab (SEQ ID NOs: 202, 203) signal?
1.89

Sample TCSAGFSYSWPACF [Phage-1000] — what was its Anti-CD28 Fab (SEQ ID NOs: 202, 203) signal?
1.86

Sample LCSAGAMWQWPTCL [Phage-1097] — what was its Anti-CD28 Fab (SEQ ID NOs: 202, 203) signal?
1.51

Sample TCAAGAHYPWPYCL [Phage-1020] — what was its Anti-CD28 Fab (SEQ ID NOs: 202, 203) signal?
1.77

Sample WCAAGASYPWPWCL [Phage-1077] — what was its Anti-CD28 Fab (SEQ ID NOs: 202, 203) signal?
1.58

Sample MCAAGAMYAWPTCL [Phage-1028] — what was its Anti-CD28 Fab (SEQ ID NOs: 202, 203) signal?
1.75

Sample MCTAGALYNWPTCL [Phage-1019] — what was its Anti-CD28 Fab (SEQ ID NOs: 202, 203) signal?
1.78

Sample SCSAGAAWPWPWCL [Phage-1085] — what was its Anti-CD28 Fab (SEQ ID NOs: 202, 203) signal?
1.55

Sample SCAAVFPYPWPPCF [Phage-1030] — what was its Anti-CD28 Fab (SEQ ID NOs: 202, 203) signal?
1.75

Sample TCAAGAYYAWPMCL [Phage-1070] — what was its Anti-CD28 Fab (SEQ ID NOs: 202, 203) signal?
1.59

Sample LCNAGAPYKWPTCL [Phage-1050] — what was its Anti-CD28 Fab (SEQ ID NOs: 202, 203) signal?
1.66

Sample TCSAGAHYPWPDCI [Phage-985] — what was its Anti-CD28 Fab (SEQ ID NOs: 202, 203) signal?
1.95

Sample TCAAGAGWAWPFCF [Phage-1056] — what was its Anti-CD28 Fab (SEQ ID NOs: 202, 203) signal?
1.65

Sample SCAAGASYPWPQCL [Phage-1023] — what was its Anti-CD28 Fab (SEQ ID NOs: 202, 203) signal?
1.77

Sample TCSAGANYEWPWCF [Phage-1062] — what was its Anti-CD28 Fab (SEQ ID NOs: 202, 203) signal?
1.62

Sample LCKPGVPNSWPTCL [Phage-984] — what was its Anti-CD28 Fab (SEQ ID NOs: 202, 203) signal?
1.95

Sample LCTAGLAYNWPTCL [Phage-1024] — what was its Anti-CD28 Fab (SEQ ID NOs: 202, 203) signal?
1.77

Sample TCRAGATYNWPFCL [Phage-996] — what was its Anti-CD28 Fab (SEQ ID NOs: 202, 203) signal?
1.9

Sample SCAAGAHYVWPFCF [Phage-1046] — what was its Anti-CD28 Fab (SEQ ID NOs: 202, 203) signal?
1.68

Sample TCSAGATYIWPMCF [Phage-995] — what was its Anti-CD28 Fab (SEQ ID NOs: 202, 203) signal?
1.9

Sample TCSAGATYNWPWCF [Phage-1047] — what was its Anti-CD28 Fab (SEQ ID NOs: 202, 203) signal?
1.68

Sample TCAAGAMWQWPVCL [Phage-1010] — what was its Anti-CD28 Fab (SEQ ID NOs: 202, 203) signal?
1.81

Sample TCSAGATFHWPQCF [Phage-1006] — what was its Anti-CD28 Fab (SEQ ID NOs: 202, 203) signal?
1.83

Sample TCAAGATYEWPTCL [Phage-983] — what was its Anti-CD28 Fab (SEQ ID NOs: 202, 203) signal?
1.96

Sample TCAAGAMWTWPECL [Phage-1081] — what was its Anti-CD28 Fab (SEQ ID NOs: 202, 203) signal?
1.57

Sample TCAAGAVWEWPMCF [Phage-1026] — what was its Anti-CD28 Fab (SEQ ID NOs: 202, 203) signal?
1.76

Sample SCAAGATFHWPMCF [Phage-1079] — what was its Anti-CD28 Fab (SEQ ID NOs: 202, 203) signal?
1.57
